# Assay Target: SARS-CoV-2 spike protein S1 subunit (Severe acute respiratory syndrome coronavirus 2, UniProt P0DTC2)
# Construct: Recombinant SARS-CoV-2 spike protein S1 subunit (˜72 kDa) containing an N-terminal His-tag; purchased RayBiotech (Peachtree Corners, GA)
# Assay type: binding
Kindly return true if reported Fold Peak Area Enrichment, Pure compound is no lower than 10; return false if it is lower.

[ask] Textbook exercise: given the entry `CCCCCc1cc(O)c(C/C=C(\C)CCC=C(C)C)c(OC)c1` , state whether its Fold Peak Area Enrichment, Pure compound is greater than or equal to 10.
[reply] false

[ask] Textbook exercise: given the entry `CCCCCc1cc(O)c(C/C=C(\C)CCC=C(C)C)c(O)c1C(=O)O` , state whether its Fold Peak Area Enrichment, Pure compound is greater than or equal to 10.
[reply] true

[ask] Textbook exercise: given the entry CCCCCc1cc2c(c(O)c1C(=O)O)[C@@H]1C=C(C)CC[C@H]1C(C)(C)O2 [THCA-A, Tetrahydrocannabinolic acid] , state whether its Fold Peak Area Enrichment, Pure compound is greater than or equal to 10.
[reply] true

[ask] Textbook exercise: given the entry `C=C(C)[C@@H]1CCC(C)=C[C@H]1c1c(O)cc(CCCCC)cc1OC` , state whether its Fold Peak Area Enrichment, Pure compound is greater than or equal to 10.
[reply] false

[ask] Textbook exercise: given the entry `C=C(C)[C@@H]1CCC(C)=C[C@H]1c1c(O)cc(CCCCC)c(C(=O)O)c1O` , state whether its Fold Peak Area Enrichment, Pure compound is greater than or equal to 10.
[reply] true
